molecular target: 5-hydroxytryptamine receptor 4 (Cavia porcellus); experiment: Ability to displace [3H]GR-113808 from 5-hydroxytryptamine 4 receptor at concentration of 10e-8 M in guinea pig
Give measured inhibition for each item. Keep answers brief.
Answers are plain numbers, in %.

Consider the reported inhibition for these molecules:
- chemicalStructure: "CN1CCC(COc2nc3ccccc3c3c2CCCN3)CC1"
  experimentalTarget: "5-hydroxytryptamine receptor 4 (Cavia porcellus)"
  inhibition, %: 52
- chemicalStructure: "CCCN1CCC(COc2nc3ccccc3c3c2CCCN3)CC1"
  experimentalTarget: "5-hydroxytryptamine receptor 4 (Cavia porcellus)"
  inhibition, %: 70

Let us move to another entry and its inhibition.
Observed inhibition, 5-hydroxytryptamine receptor 4 (Cavia porcellus), `CCCCCN1CCC(COc2nc3ccccc3c3c2CCCCN3)CC1` : 0

Hey, just so you know, these numbers are from ChEMBL document CHEMBL1145012.
